- target: human GAL3 receptor (Homo sapiens, UniProt O60755)
- Construct: expressed in transfected cells
- Sequence (O60755 1-368): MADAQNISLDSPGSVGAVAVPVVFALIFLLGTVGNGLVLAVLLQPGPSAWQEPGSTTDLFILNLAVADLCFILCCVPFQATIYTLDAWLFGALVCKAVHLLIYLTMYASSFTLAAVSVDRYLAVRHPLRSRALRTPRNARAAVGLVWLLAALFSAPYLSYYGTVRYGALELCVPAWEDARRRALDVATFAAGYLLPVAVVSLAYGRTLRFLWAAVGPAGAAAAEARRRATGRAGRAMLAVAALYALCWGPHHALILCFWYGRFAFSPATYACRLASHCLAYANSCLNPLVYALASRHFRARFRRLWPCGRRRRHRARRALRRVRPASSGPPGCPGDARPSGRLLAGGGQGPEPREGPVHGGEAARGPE
- protocol: Radioligand binding at cloned human GAL3 receptor
- condition_summary: pyrimidines, cloned human receptor; read-out: Ki GalR3
Please go through the items and note down their Ki.
Reply numerically in nM, unit not repeated.

In: Return Ki (reported value) for this molecule: Cc1cc(Nc2cc(N(C)C)nc(N3CCN(c4ccccn4)CC3)n2)ccc1F
Out: 311

In: Give reported Ki value for Cc1ccc(Nc2cc(N3CCCCC3)nc(N(C)CCc3c[nH]c4ccccc34)n2)cc1Cl
Out: 33

In: Given the molecule Cc1ccc(Nc2cc(N(C)C)nc(N3CCN(c4cnccn4)CC3)n2)cc1C , write its reported Ki.
Out: 66

In: In one line, give reported Ki of the entry Cc1ccc(Nc2cc(N(C)C)nc(N(C)CCc3ccccn3)n2)cc1 .
Out: 114

In: Return Ki (reported value) for this molecule: CN(C)c1cc(Nc2cccc(Cl)c2)nc(N2CCN(Cc3ccccc3)CC2)n1
Out: 26

In: Please give measured Ki of the following entry: COCCN(c1nc(Nc2ccc(C)cc2)cc(N2CCCCC2)n1)C1CCCCC1
Out: 26

In: Please look at this molecule and report its Ki: COCCN(CCc1c[nH]c2ccccc12)c1nc(Nc2ccc(C)cc2)cc(N2CCCCC2)n1
Out: 79

In: Specify measured Ki for Cc1ccc(Nc2cc(N3CCCCC3)nc(N(C)C(C)Cc3c[nH]c4ccccc34)n2)cc1 (stereo not shown) .
Out: 49

In: Specify measured Ki for Cc1ccc(Nc2cc(N(C)C)nc(N3CCN(c4cccc(OCc5ccccc5)c4)CC3)n2)cc1 .
Out: 20

In: Provide one value: measured Ki of Cc1ccc(C)c(Nc2cc(N(C)C)nc(N3CCN(c4ccccn4)CC3)n2)c1
Out: 165

In: For the molecule CN(C)c1cc(Nc2ccc(Cl)c(Cl)c2)nc(N2CCN(c3ccccn3)CC2)n1 , report Ki.
Out: 36

In: Given the molecule Cc1ccc(Nc2cc(N(C)C)nc(N3CCN(S(=O)(=O)c4ccc(C)cc4)CC3)n2)cc1 , write its reported Ki.
Out: 261

In: Report Ki for COc1cc(Nc2cc(N(C)C)nc(N3CCN(Cc4ccccc4)CC3)n2)cc(C(F)(F)F)c1
Out: 66

In: Supply measured Ki of Cc1ccc(Nc2cc(N(C)C)nc(Nc3ccccc3)n2)cc1Cl in your reply.
Out: 736

In: Give Ki for the following molecule: CN(C)c1cc(Nc2ccc(Br)cc2Cl)nc(N2CCN(c3ccccn3)CC2)n1
Out: 190

In: Report Ki, nothing else, for this molecule: Cc1ccc(Nc2cc(N(C)C)nc(N3CCN(c4ccccn4)CC3)n2)c(Cl)c1
Out: 559

In: Look up and state reported Ki for Cc1ccc(Nc2cc(N(C)C)nc(N3CCN(Cc4ccccc4)CC3)n2)cc1
Out: 49

In: Give me measured Ki, please, for this molecule: CN(C)c1cc(Nc2ccc(F)cc2)nc(N2CCN(Cc3ccccc3)CC2)n1
Out: 61

In: Please report the measured Ki for Cc1ccc(Nc2cc(N3CCCCC3)nc(N3CCCC3)n2)cc1
Out: 320

In: Look up and state reported Ki for CCOc1cccc(Nc2cc(N(C)C)nc(N3CCN(c4ccccn4)CC3)n2)c1
Out: 100

In: // Input: FC(F)(F)c1cccnc1N1CCN(c2nc(NC3CCCCC3)cc(N3CCCCC3)n2)CC1 . Output its Ki only.
Out: 111

In: Consider the molecule CN(C)c1cc(Nc2cccc(Br)c2)nc(N2CCN(c3ccccn3)CC2)n1 . State its measured Ki.
Out: 46

In: Specify reported Ki for the molecule shown: CN(C)c1cc(Nc2ccc(F)c(F)c2F)nc(N2CCN(c3ccccn3)CC2)n1
Out: 560

In: Fill in reported Ki for this entry: COc1cc(Nc2cc(N(C)C)nc(N3CCN(c4ccccn4)CC3)n2)cc(OC)c1
Out: 740

In: Write down Ki measured for item Cc1ccc(Nc2cc(N(C)C)nc(N(C)CCc3ccccc3)n2)cc1
Out: 33

In: Respond only with Ki recorded for Cc1ccc(Nc2cc(N(C)C)nc(N3CCN(Cc4cccs4)CC3)n2)cc1
Out: 325

In: Please give the documented Ki of CN(C)c1cc(Nc2cccc(Cc3ccccc3)c2)nc(N2CCN(c3ccccn3)CC2)n1
Out: 50

In: Return reported Ki. Input molecule: CN(C)c1cc(Nc2ccc(F)c(F)c2)nc(N2CCN(c3ccccn3)CC2)n1
Out: 443

In: // fetch Ki given entry Cc1ccc(Nc2cc(N3CCCCC3)nc(NCCc3c[nH]c4ccc(C)cc34)n2)cc1
Out: 264

In: Answer with the recorded Ki for the molecule listed here: Cc1ccc(Nc2cc(N(C)C)nc(N3CCN(c4ccc(Br)cn4)CC3)n2)cc1
Out: 169

In: Look up Ki of Cc1ccc(Nc2cc(N3CCCCC3)nc(N3CCc4ccccc43)n2)cc1 and report it.
Out: 128

In: Report Ki, nothing else, for this molecule: CN(C)c1cc(Nc2cccc(Cl)c2Cl)nc(N2CCN(c3ccccn3)CC2)n1
Out: 616

In: # return recorded Ki for input COc1ccc(OC)c(Nc2cc(N(C)C)nc(N3CCN(c4ccccn4)CC3)n2)c1
Out: 566

In: Fill in reported Ki for this entry: CN(C)c1cc(Nc2ccc(C3CCCCC3)cc2)nc(N2CCN(c3ccccn3)CC2)n1
Out: 21

* * *

- target: DA transporter (Rattus norvegicus)
- Sequence (P23977 whole entry): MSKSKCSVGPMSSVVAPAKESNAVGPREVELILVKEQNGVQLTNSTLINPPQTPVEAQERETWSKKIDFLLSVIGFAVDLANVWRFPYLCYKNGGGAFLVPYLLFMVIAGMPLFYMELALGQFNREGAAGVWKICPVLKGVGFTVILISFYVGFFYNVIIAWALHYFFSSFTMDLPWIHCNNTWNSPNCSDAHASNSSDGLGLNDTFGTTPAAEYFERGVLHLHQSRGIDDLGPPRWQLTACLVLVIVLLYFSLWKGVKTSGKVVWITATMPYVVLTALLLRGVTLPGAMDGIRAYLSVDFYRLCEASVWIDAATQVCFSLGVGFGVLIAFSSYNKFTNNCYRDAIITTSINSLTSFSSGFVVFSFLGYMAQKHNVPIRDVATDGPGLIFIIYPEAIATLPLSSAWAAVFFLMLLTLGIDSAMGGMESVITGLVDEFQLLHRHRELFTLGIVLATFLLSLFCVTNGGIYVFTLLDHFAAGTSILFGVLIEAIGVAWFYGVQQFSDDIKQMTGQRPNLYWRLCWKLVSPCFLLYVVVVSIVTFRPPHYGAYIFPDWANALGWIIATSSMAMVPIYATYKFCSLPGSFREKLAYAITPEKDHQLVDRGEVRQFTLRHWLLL
- protocol: Binding at native DA transporter
- condition_summary: Table 8; Ki rDA Uptk divided by Ki hGAL3
- Method: The binding properties of the compounds of the present invention were evaluated at one or more cloned receptors or native, tissue-derived transporters, using protocols described below. […] Binding data were analyzed using nonlinear regression and statistical techniques available in the GraphPAD Prism package (San Diego, CA). […]
Provide the recorded selectivity ratio rDA Uptk for the entries that follow.

In: Give reported selectivity ratio rDA Uptk value for O=C1C(=Nc2ccc(C(F)(F)F)cc2)c2ccccc2N1c1ccccc1
Out: >100

In: Read the entry O=C1C(=Nc2cccc(Cl)c2)c2ccccc2N1c1ccccc1 and write its reported selectivity ratio rDA Uptk.
Out: >130

In: Supply reported selectivity ratio rDA Uptk belonging to this molecule: Cc1ccc(Nc2cc(N3CCCCC3)nc(N(C)CCc3c[nH]c4ccccc34)n2)cc1
Out: >30

In: Could you please provide reported selectivity ratio rDA Uptk for O=C1C(=Nc2cccc(C(F)(F)F)c2)c2ccccc2N1c1ccccc1 ? Thanks!
Out: >100

In: // fetch selectivity ratio rDA Uptk given entry Cc1ccc(Nc2cc(N3CCCCC3)nc(N(C)CCc3ccccc3)n2)cc1
Out: >100

* * *

- target: rat 5HT2C receptor (Rattus norvegicus, UniProt P08909)
- Construct: expressed in transfected cells
- Sequence (P08909 33-460): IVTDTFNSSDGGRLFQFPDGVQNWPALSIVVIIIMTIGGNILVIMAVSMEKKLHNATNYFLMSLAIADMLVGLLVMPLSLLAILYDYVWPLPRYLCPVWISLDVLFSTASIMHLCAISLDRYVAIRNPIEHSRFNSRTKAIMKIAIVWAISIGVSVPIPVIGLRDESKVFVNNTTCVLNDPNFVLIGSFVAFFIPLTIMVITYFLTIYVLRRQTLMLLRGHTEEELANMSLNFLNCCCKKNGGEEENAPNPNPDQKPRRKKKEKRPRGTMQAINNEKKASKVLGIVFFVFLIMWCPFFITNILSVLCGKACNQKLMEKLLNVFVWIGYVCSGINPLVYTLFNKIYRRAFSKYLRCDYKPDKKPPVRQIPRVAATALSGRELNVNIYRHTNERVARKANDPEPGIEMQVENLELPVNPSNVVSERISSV
- protocol: Radioligand binding, 5HT2C receptor
- condition_summary: Table 7; read-out: r5HT2C Ki
Rule for this label: satisfied means Ki is less than 2000 nM; not satisfied means Ki is at least 2000 nM.

In: Answer whether the molecule O=C1C(=Nc2ccc(Br)cc2)c2ccccc2N1c1ccccc1 has Ki strictly less than 2000 nM
Out: not satisfied

In: In the record for Cc1ccc(Nc2cc(N3CCCCC3)nc(N3CCN(c4ncccc4C(F)(F)F)CC3)n2)cc1 , is Ki less than 2000 nM?
Out: not satisfied

In: Quick check: does Cc1ccc(Nc2cc(N3CCCCC3)nc(N(C)CCc3ccccc3)n2)cc1 have Ki under 2000 nM?
Out: satisfied

In: Is Ki strictly under 2000 nM for the entry COc1cccc(Nc2cc(N3CCCCC3)nc(N(C)CCc3c[nH]c4ccccc34)n2)c1 ?
Out: satisfied

In: # check: Ki < 2000 nM for O=C1C(=Nc2cccc(Cl)c2)c2ccccc2N1c1ccccc1
Out: not satisfied

In: Determine if O=C1C(=Nc2ccc(C(F)(F)F)cc2)c2ccccc2N1c1ccccc1 shows Ki strictly lower than 2000 nM.
Out: not satisfied

In: Say whether its Ki is strictly beneath 2000 nM. Entry: Cc1ccc(Nc2cc(N3CCCCC3)nc(N(C)CCc3c[nH]c4ccccc34)n2)cc1
Out: satisfied

In: Does the reported Ki of CN(CCc1c[nH]c2ccccc12)c1nc(Nc2ccc(F)c(F)c2)cc(N2CCCCC2)n1 stay below 2000 nM?
Out: satisfied

In: Take the molecule CN(C)c1cc(Nc2ccc(Cl)c(Cl)c2)nc(Nc2ccccc2)n1 and say whether its Ki is less than 2000 nM.
Out: satisfied

In: Does the reported Ki of Cc1ccc(Nc2cc(N(C)C)nc(N(C)CCc3c[nH]c4ccccc34)n2)cc1 stay below 2000 nM?
Out: satisfied
